Please respond with reported LD50 at 168 h for every item in the list.
Experiment: in vivo
Settings: mouse, po, mice, 7 days observation, Litchfield-Wilcoxon
Give just the numeric value; mg/kg need not be written.

Enquiry: Which LD50 at 168 h value is on record for `Cc1ccc(N2CCSC2=N)c(N)c1` ?
Return: 1300

Enquiry: Which LD50 at 168 h value is on record for `N=C1SCCN1c1ccc(N)cc1[N+](=O)[O-]` ?
Return: 1200

Enquiry: Which LD50 at 168 h value is on record for `Cl.N=C1SCCN1c1ccc(C(F)(F)F)cc1N` ?
Return: 1300

Enquiry: Which LD50 at 168 h value is on record for `N=C1SCCN1c1cc(Cl)ccc1[N+](=O)[O-]` ?
Return: 700

###

System: intestinal peristalsis
Assay: animal or person
Format: in vivo
Settings: LD50 and ED50 intestinal peristalsis, mice
Please respond with reported Therapeutical index (inhibition of intestinal peristalsis) for every item in the list.
I'd appreciate a reply containing only the number, no unit.

Enquiry: Which Therapeutical index (inhibition of intestinal peristalsis) value is on record for Cl.N=C1SCCN1c1ccc(C(F)(F)F)cc1N [Compound 4] ?
Return: 19.7

Enquiry: Which Therapeutical index (inhibition of intestinal peristalsis) value is on record for N=C1SCCN1c1ccc(C(F)(F)F)cc1N [Compound 4 (diethanesulfonate)] ?
Return: 52

Enquiry: Which Therapeutical index (inhibition of intestinal peristalsis) value is on record for COc1ccc(Cc2nccc3cc(OC)c(OC)cc23)cc1OC [Papaverine, reference compound] ?
Return: 2.01

Enquiry: Which Therapeutical index (inhibition of intestinal peristalsis) value is on record for CCS(=O)(=O)O.CCS(=O)(=O)O.COc1ccc(N2CCSC2=N)c(N)c1 [Compound 7 (diethanesulfonate)] ?
Return: 10

Enquiry: Which Therapeutical index (inhibition of intestinal peristalsis) value is on record for Cl.N=C1SCCN1c1ccc(C(F)(F)F)cc1[N+](=O)[O-] [Compound 6] ?
Return: 100

Enquiry: Which Therapeutical index (inhibition of intestinal peristalsis) value is on record for N=C1SCCN1c1cc(Cl)ccc1[N+](=O)[O-] [Compound 9] ?
Return: 38.9

Enquiry: Which Therapeutical index (inhibition of intestinal peristalsis) value is on record for Br.COc1ccc(N2CCSC2=N)c([N+](=O)[O-])c1 [Compound 11] ?
Return: 6.2

Enquiry: Which Therapeutical index (inhibition of intestinal peristalsis) value is on record for N=C1SCCN1c1ccc(N)cc1 [Compound 14] ?
Return: 4.4

Enquiry: Which Therapeutical index (inhibition of intestinal peristalsis) value is on record for N=C1SCCN1c1ccc(N)cc1[N+](=O)[O-] [Compound 15] ?
Return: 12

Enquiry: Which Therapeutical index (inhibition of intestinal peristalsis) value is on record for N=C1SCCN1c1ccccc1[N+](=O)[O-] [Compound 10, 3-(2-nitrophenyl)-2-iminothiazolidine] ?
Return: 5

Enquiry: Which Therapeutical index (inhibition of intestinal peristalsis) value is on record for CCS(=O)(=O)O.CCS(=O)(=O)O.N=C1SCCN1c1ccc(Cl)cc1N [Compound 8] ?
Return: 10.5

###

Please respond with reported Therapeutical index (reserpine ptosis antagonism) for every item in the list.
Test system: Reserpine ptosis
Experiment: animal or person
Assay type: in vivo
Details: LD50 and ED50 reserpine ptosis, mice

Enquiry: Which Therapeutical index (reserpine ptosis antagonism) value is on record for CC1CSC(=N)N1c1ccc(Cl)cc1N.Cl.Cl (stereo not shown) ?
Return: 67

Enquiry: Which Therapeutical index (reserpine ptosis antagonism) value is on record for CN(C)CCC=C1c2ccccc2CCc2ccccc21 [Amitriptylin, reference compound] ?
Return: 3.5

Enquiry: Which Therapeutical index (reserpine ptosis antagonism) value is on record for `Cc1ccc(N2CCSC2=N)c(N)c1` ?
Return: 18.5

Enquiry: Which Therapeutical index (reserpine ptosis antagonism) value is on record for `CCS(=O)(=O)O.CCS(=O)(=O)O.N=C1SCCN1c1ccc(Cl)cc1N` ?
Return: 50

Enquiry: Which Therapeutical index (reserpine ptosis antagonism) value is on record for `Br.COc1ccc(N2CCSC2=N)c([N+](=O)[O-])c1` ?
Return: 16.3

Enquiry: Which Therapeutical index (reserpine ptosis antagonism) value is on record for `Cl.Cl.N=C1SCCN1c1ccc(Cl)cc1N` ?
Return: 14

Enquiry: Which Therapeutical index (reserpine ptosis antagonism) value is on record for `Cl.N=C1SCCN1c1ccc(C(F)(F)F)cc1N` ?
Return: 38

Reference for the values: patent US4665083A
